- Assay System: wild-type FLT3 receptor (Homo sapiens, UniProt P36888)
- Procedure Summary: Cell-based FLT3 receptor ELISA (FLT ligand-induced phosphorylation in Baf3 FLT3 cells)
- Reported Conditions: 100 ng/mL Flt ligand, uncertainty ±20%
Measure: IC50 (µM)

1. O=C(Nc1ccc(N2CCOCC2)cc1)N1CCC(c2ncnc3cc(OCCCN4CCCC4)ccc23)CC1
2. CC(C)Oc1ccc(NC(=O)N2CCC(c3ncnc4ccc(OCCCN5CCCC5=O)cc34)CC2)cc1
**Q:** Pick the one with the larger IC50: 1 vs 2 When you have decided, please share the label of that item.
**A:** 1

====

- Assay System: wild-type FLT3 receptor (Homo sapiens, UniProt P36888)
- Sequence (P36888 27-993): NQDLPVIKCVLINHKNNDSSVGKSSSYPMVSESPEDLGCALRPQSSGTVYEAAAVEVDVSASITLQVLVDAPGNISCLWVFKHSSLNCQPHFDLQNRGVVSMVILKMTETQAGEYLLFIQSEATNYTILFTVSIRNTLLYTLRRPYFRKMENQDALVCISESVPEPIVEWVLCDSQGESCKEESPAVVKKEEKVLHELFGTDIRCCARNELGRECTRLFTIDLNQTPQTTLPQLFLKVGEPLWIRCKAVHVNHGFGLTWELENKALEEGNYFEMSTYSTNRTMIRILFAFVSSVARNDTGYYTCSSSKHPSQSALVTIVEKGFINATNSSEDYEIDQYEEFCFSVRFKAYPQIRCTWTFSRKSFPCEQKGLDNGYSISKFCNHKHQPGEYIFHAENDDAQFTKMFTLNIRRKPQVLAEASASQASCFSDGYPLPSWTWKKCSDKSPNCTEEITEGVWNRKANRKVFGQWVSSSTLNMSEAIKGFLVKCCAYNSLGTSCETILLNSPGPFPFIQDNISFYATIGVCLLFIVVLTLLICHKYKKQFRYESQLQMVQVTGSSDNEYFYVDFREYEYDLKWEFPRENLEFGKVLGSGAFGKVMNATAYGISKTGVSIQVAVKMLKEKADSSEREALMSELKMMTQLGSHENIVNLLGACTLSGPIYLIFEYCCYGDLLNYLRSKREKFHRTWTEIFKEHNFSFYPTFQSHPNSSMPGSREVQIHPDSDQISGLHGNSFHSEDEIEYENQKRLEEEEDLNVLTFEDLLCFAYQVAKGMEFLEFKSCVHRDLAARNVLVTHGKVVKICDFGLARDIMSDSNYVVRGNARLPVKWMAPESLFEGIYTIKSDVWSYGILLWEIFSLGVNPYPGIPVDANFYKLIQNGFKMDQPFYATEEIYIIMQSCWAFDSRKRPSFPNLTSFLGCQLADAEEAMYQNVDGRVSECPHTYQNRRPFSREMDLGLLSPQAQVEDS
- Procedure Summary: Cell-based FLT3 receptor ELISA (FLT ligand-induced phosphorylation in Baf3 FLT3 cells)
- Reported Conditions: 100 ng/mL Flt ligand, uncertainty ±20%
pIC50: −log10 of the molar value.
Measure: pIC50

Please review the entries below; each comes with its answer.
> print(dat)
                           structure.smiles  obs.value
1  CC(=O)N1CCC[C@H]1COc1ccc2c(C3CCN(C(=O)Nc4ccc(N5CCCC5)cc4)CC3)ncnc2c1       8.00
2  CC(C)c1ccc(NC(=O)N2CCC(c3ncnc4cc(Cl)ccc34)CC2)cc1       7.08

1. CC(C)Oc1ccc(NC(=O)N2CCC(c3ncnc4cc(Cl)ccc34)CC2)cc1
2. O=C(Nc1ccc(N2CCCC2)cc1)N1CCC(c2ncnc3cc(O[C@@H]4CCOC4)ccc23)CC1
**Q:** Pick the one with the larger pIC50: 1 vs 2 When you have decided, please share the label of that item.
**A:** 1

Values were extracted from patent US20070004660A1.
